# assayName: Solid state stability under humid conditions (40° C./75% RH and 25° C./60% RH, two weeks)
# Type: physicochemical
# assayConditions: 25° C./60% RH
measurementKind: TGA After Storage: further loss above/post 200° C. (% post 200 °C)
Expressed in % post 200 °C, but write only the number.

Return TGA After Storage: further loss above/post 200° C. for the following compound: COC(=O)c1ccc2c(c1)NC(=O)/C2=C(\Nc1ccc(N(C)C(=O)CN2CCN(C)CC2)cc1)c1ccccc1.Cl [Compound 1 Hydrochloride Form B] 1.41

Return TGA After Storage: further loss above/post 200° C. for the following compound: COC(=O)c1ccc2c(c1)NC(=O)/C2=C(\Nc1ccc(N(C)C(=O)CN2CCN(C)CC2)cc1)c1ccccc1.Cl [Compound 1 Hydrochloride Form D] 1.51

Return TGA After Storage: further loss above/post 200° C. for the following compound: COC(=O)c1ccc2c(c1)NC(=O)/C2=C(\Nc1ccc(N(C)C(=O)CN2CCN(C)CC2)cc1)c1ccccc1.Cl [Compound 1 Hydrochloride Form C] 0.98

###

# assayName: Solid state stability under humid conditions (40° C./75% RH and 25° C./60% RH, two weeks)
# Format: physicochemical
# assayConditions: 40° C./75% RH
measurementKind: TGA After Storage: further loss above/post 200° C.

Return TGA After Storage: further loss above/post 200° C. for the following compound: COC(=O)c1ccc2c(c1)NC(=O)/C2=C(\Nc1ccc(N(C)C(=O)CN2CCN(C)CC2)cc1)c1ccccc1.Cl [Compound 1 Hydrochloride Form A (Type 1 Lot)] 100° C., further loss of 1.05%

Return TGA After Storage: further loss above/post 200° C. for the following compound: COC(=O)c1ccc2c(c1)NC(=O)/C2=C(\Nc1ccc(N(C)C(=O)CN2CCN(C)CC2)cc1)c1ccccc1.Cl [Compound 1 Hydrochloride Form C] 1.0% post 200 °C

Return TGA After Storage: further loss above/post 200° C. for the following compound: COC(=O)c1ccc2c(c1)NC(=O)/C2=C(\Nc1ccc(N(C)C(=O)CN2CCN(C)CC2)cc1)c1ccccc1.Cl [Compound 1 Hydrochloride Form D] 1.68% post 200 °C
